- Tested on: PDE 4
- METHOD DESCRIPTION: Inhibition of PDE 4 activity (method of Bauer and Schwabe, adapted to microtiter plates)
- Assay type: biochemical
- STATED CONDITIONS: Table A
Recorded inhibitory concentration as -log IC50 (mol/l), Inhibition of PDE 4 activity for the following molecules
Reply briefly: the number, and no unit.

Worked examples follow.
MOLECULE	TEST SYSTEM	NUMERIC VALUE
CCOc1cc2c(cc1OC)C(c1ccc(S(=O)(=O)Nc3ccc(C)cc3)cc1)=N[C@H]1CCCC[C@@H]21 (racemic)	PDE 4	9.24
CCCN(CCC)S(=O)(=O)c1ccc(C2=N[C@H]3CCCC[C@H]3c3cc(OCC)c(OC)cc32)cc1 (racemic)	PDE 4	9.25
CCOc1cc2c(cc1OC)C(c1ccc(C(=O)Nc3cccnc3)cc1)=NC1CCCCC21 (mixture of isomers)	PDE 4	8.66
COc1cc2c(cc1OC)[C@@H]1CCCC[C@@H]1N=C2c1ccc(S(=O)(=O)Nc2ccc(C)cc2)cc1 (single isomer, unassigned)	PDE 4	8.30

API: the following record is the query input.
QUERY: Lab note: need inhibitory concentration as -log IC50 (mol/l), Inhibition of PDE 4 activity with PDE 4 for entry CCOc1cc2c(cc1OC)C(c1ccc(S(N)(=O)=O)cc1)=N[C@H]1CCCC[C@@H]21 (racemic) , please look it up.
RESULT: 8.55
